procedure text: In situ single-pass intestinal perfusion (SPIP), saponins administrated in MDQ-TS form
Format: in vivo, rat
recorded conditions: male, Sprague-Dawley, rat, other: in situ single-pass intestinal perfusion, MDQ-TS form 2.5 mg·mL^−1, ileum, n = 5
Parameter: Papp. Scope: all listed entries.
readout kind: Papp (×10⁻⁶ cm/s)

compound	unit of measurement	readout number
CC1CCC2(C(=O)OC3OC(CO)C(O)C(O)C3O)CCC3(C)C(=CCC4C5(C)CCC(O)C(C)(C(=O)O)C5CCC43C)C2C1(C)O (centres unmarked)	×10⁻⁶ cm/s	46.7
C[C@@H]1CC[C@]2(C(=O)O)CC[C@]3(C)C(=CC[C@@H]4[C@@]5(C)CC[C@H](O)[C@@](C)(C(=O)O)[C@@H]5CC[C@]43C)[C@@H]2[C@]1(C)O	×10⁻⁶ cm/s	68.3

###

procedure text: In situ single-pass intestinal perfusion (SPIP), saponins administrated in MDQ-TS form
Format: in vivo, rat
recorded conditions: male, Sprague-Dawley, rat, other: in situ single-pass intestinal perfusion, MDQ-TS form 2.5 mg·mL^−1, duodenum, n = 5
compounds and their reported Papp

compound	Papp
CC1CCC2(C(=O)OC3OC(CO)C(O)C(O)C3O)CCC3(C)C(=CCC4C5(C)CCC(O)C(C)(C(=O)O)C5CCC43C)C2C1(C)O (centres unmarked)	45 ×10⁻⁶ cm/s
C[C@@H]1CC[C@]2(C(=O)O)CC[C@]3(C)C(=CC[C@@H]4[C@@]5(C)CC[C@H](O)[C@@](C)(C(=O)O)[C@@H]5CC[C@]43C)[C@@H]2[C@]1(C)O	50 ×10⁻⁶ cm/s

###

Test system: rat small intestine (duodenum, jejunum, ileum)
procedure text: In situ single-pass intestinal perfusion (SPIP), saponins administrated in MDQ-TS form
Assay type: in vivo
recorded conditions: MDQ-TS form 5.0 mg·mL^−1, duodenum, n = 5
readout kind: Ka

compound	result
C[C@@H]1O[C@@H](O[C@H]2[C@H](O[C@H]3[C@H](O[C@H]4CC[C@]5(C)[C@H]6CC=C7[C@H]8[C@](C(=O)O[C@@H]9O[C@H](CO)[C@@H](O)[C@H](O)[C@H]9O)(CC[C@H](C)[C@@]8(C)O)CC[C@@]7(C)[C@]6(C)CC[C@H]5C4(C)C)OC[C@@H](O)[C@@H]3O)O[C@H](CO)[C@@H](O)[C@@H]2O)[C@H](O)[C@H](O)[C@H]1O [DC2, ilexoside O]	1.27 ± 0.44 ×10^−2 min^−1
C[C@H]1CC[C@]2(C(=O)O)CC[C@]3(C)C(=CC[C@@H]4[C@@]5(C)CC[C@H](O[C@@H]6OC[C@@H](O)[C@H](O)[C@H]6O[C@@H]6O[C@H](CO)[C@@H](O)[C@H](O)[C@H]6O)C(C)(C)[C@@H]5CC[C@]43C)[C@@H]2[C@]1(C)O [C3, ilexsaponin B1]	1.80 ± 0.97 ×10^−2 min^−1
C[C@@H]1O[C@@H](O[C@H]2[C@H](O[C@H]3[C@H](O[C@H]4CC[C@]5(C)[C@H]6CC=C7[C@H]8[C@](C(=O)O)(CC[C@H](C)[C@@]8(C)O)CC[C@@]7(C)[C@]6(C)CC[C@H]5C4(C)C)OC[C@@H](O)[C@@H]3O)O[C@H](CO)[C@@H](O)[C@@H]2O)[C@H](O)[C@H](O)[C@H]1O [C4, ilexsaponin B2]	1.87 ± 0.86 ×10^−2 min^−1
C[C@@H]1CC[C@]2(C(=O)O)CC[C@]3(C)C(=CC[C@@H]4[C@@]5(C)CC[C@H](O)[C@@](C)(C(=O)O)[C@@H]5CC[C@]43C)[C@@H]2[C@]1(C)O [C1, ilexgenin A]	1.68 ± 0.74 ×10^−2 min^−1
CC1CCC2(C(=O)OC3OC(CO)C(O)C(O)C3O)CCC3(C)C(=CCC4C5(C)CCC(O)C(C)(C(=O)O)C5CCC43C)C2C1(C)O (centres unmarked) [C2, ilexsaponin A1]	1.13 ± 0.62 ×10^−2 min^−1

###

// reported Ka increase in comparison with non-EDTA added group per item
Tested on: rat duodenum
procedure text: SPIP of MDQ-TS with or without EDTA (tight junction modulator)
Type: in vivo
recorded conditions: MDQ-TS 2.5 mg/mL, EDTA 2.5 mmol·L^−1
readout kind: Ka increase in comparison with non-EDTA added group

compound	result
CC1CCC2(C(=O)OC3OC(CO)C(O)C(O)C3O)CCC3(C)C(=CCC4C5(C)CCC(O)C(C)(C(=O)O)C5CCC43C)C2C1(C)O (centres unmarked) [C2, ilexsaponin A1]	~1.6 fold
C[C@H]1CC[C@]2(C(=O)O)CC[C@]3(C)C(=CC[C@@H]4[C@@]5(C)CC[C@H](O[C@@H]6OC[C@@H](O)[C@H](O)[C@H]6O[C@@H]6O[C@H](CO)[C@@H](O)[C@H](O)[C@H]6O)C(C)(C)[C@@H]5CC[C@]43C)[C@@H]2[C@]1(C)O [C3, ilexsaponin B1]	~1.5 fold
C[C@@H]1O[C@@H](O[C@H]2[C@H](O[C@H]3[C@H](O[C@H]4CC[C@]5(C)[C@H]6CC=C7[C@H]8[C@](C(=O)O)(CC[C@H](C)[C@@]8(C)O)CC[C@@]7(C)[C@]6(C)CC[C@H]5C4(C)C)OC[C@@H](O)[C@@H]3O)O[C@H](CO)[C@@H](O)[C@@H]2O)[C@H](O)[C@H](O)[C@H]1O [C4, ilexsaponin B2]	~1.5 fold
C[C@@H]1CC[C@]2(C(=O)O)CC[C@]3(C)C(=CC[C@@H]4[C@@]5(C)CC[C@H](O)[C@@](C)(C(=O)O)[C@@H]5CC[C@]43C)[C@@H]2[C@]1(C)O [C1, ilexgenin A]	~1.6 fold
C[C@@H]1O[C@@H](O[C@H]2[C@H](O[C@H]3[C@H](O[C@H]4CC[C@]5(C)[C@H]6CC=C7[C@H]8[C@](C(=O)O[C@@H]9O[C@H](CO)[C@@H](O)[C@H](O)[C@H]9O)(CC[C@H](C)[C@@]8(C)O)CC[C@@]7(C)[C@]6(C)CC[C@H]5C4(C)C)OC[C@@H](O)[C@@H]3O)O[C@H](CO)[C@@H](O)[C@@H]2O)[C@H](O)[C@H](O)[C@H]1O [DC2, ilexoside O]	~3.0 fold

###

Test system: rat small intestine (duodenum, jejunum, ileum)
procedure text: In situ single-pass intestinal perfusion (SPIP), saponins administrated in MDQ-TS form
Format: in vivo
recorded conditions: MDQ-TS form 2.5 mg·mL^−1, duodenum, n = 5
# reported Ka; entries follow
readout kind: Ka

molecule	result
C[C@H]1CC[C@]2(C(=O)O)CC[C@]3(C)C(=CC[C@@H]4[C@@]5(C)CC[C@H](O[C@@H]6OC[C@@H](O)[C@H](O)[C@H]6O[C@@H]6O[C@H](CO)[C@@H](O)[C@H](O)[C@H]6O)C(C)(C)[C@@H]5CC[C@]43C)[C@@H]2[C@]1(C)O	2.19 ± 0.52 ×10^−2 min^−1
CC1CCC2(C(=O)OC3OC(CO)C(O)C(O)C3O)CCC3(C)C(=CCC4C5(C)CCC(O)C(C)(C(=O)O)C5CCC43C)C2C1(C)O (centres unmarked)	0.85 ± 0.20 ×10^−2 min^−1
C[C@@H]1O[C@@H](O[C@H]2[C@H](O[C@H]3[C@H](O[C@H]4CC[C@]5(C)[C@H]6CC=C7[C@H]8[C@](C(=O)O[C@@H]9O[C@H](CO)[C@@H](O)[C@H](O)[C@H]9O)(CC[C@H](C)[C@@]8(C)O)CC[C@@]7(C)[C@]6(C)CC[C@H]5C4(C)C)OC[C@@H](O)[C@@H]3O)O[C@H](CO)[C@@H](O)[C@@H]2O)[C@H](O)[C@H](O)[C@H]1O [DC2, ilexoside O]	0.62 ± 0.13 ×10^−2 min^−1
C[C@@H]1O[C@@H](O[C@H]2[C@H](O[C@H]3[C@H](O[C@H]4CC[C@]5(C)[C@H]6CC=C7[C@H]8[C@](C(=O)O)(CC[C@H](C)[C@@]8(C)O)CC[C@@]7(C)[C@]6(C)CC[C@H]5C4(C)C)OC[C@@H](O)[C@@H]3O)O[C@H](CO)[C@@H](O)[C@@H]2O)[C@H](O)[C@H](O)[C@H]1O	1.94 ± 0.50 ×10^−2 min^−1
C[C@@H]1CC[C@]2(C(=O)O)CC[C@]3(C)C(=CC[C@@H]4[C@@]5(C)CC[C@H](O)[C@@](C)(C(=O)O)[C@@H]5CC[C@]43C)[C@@H]2[C@]1(C)O	1.70 ± 0.31 ×10^−2 min^−1

###

Catalogue of Papp values
procedure text: In situ single-pass intestinal perfusion (SPIP), saponins administrated in monomer forms
Assay type: in vivo
recorded conditions: male, Sprague-Dawley, rat, other: in situ single-pass intestinal perfusion, monomer form, ileum, n = 5
Protocol: MDQ-TS perfusion samples at low, middle, and high concentration levels of 1.25, 2.5, and 5.0 mg·mL^−1 were prepared by separately dissolving MDQ-TS in the minimum amount of DMSO and diluted with K-R buffer solution. The amount of DMSO was 0.5% in the final perfusion solutions. […] The net water flux in the in situ perfusion studies (water absorption and efflux in the intestinal segment) was determined by gravimetric method. […]
readout kind: Papp (nm/s)

molecule	readout number
CC1CCC2(C(=O)OC3OC(CO)C(O)C(O)C3O)CCC3(C)C(=CCC4C5(C)CCC(O)C(C)(C(=O)O)C5CCC43C)C2C1(C)O (centres unmarked) [C2, ilexsaponin A1]	417
C[C@@H]1CC[C@]2(C(=O)O)CC[C@]3(C)C(=CC[C@@H]4[C@@]5(C)CC[C@H](O)[C@@](C)(C(=O)O)[C@@H]5CC[C@]43C)[C@@H]2[C@]1(C)O [C1, ilexgenin A]	500
